Assay: Pharmacokinetics and oral bioavailability after oral and IV administration
Assay type: in vivo
Settings: female, Wistar, rat, plasma, other: oral and intravenous
MEASURE: clearance

Would you kindly share the measured clearance for CC(/C=C/C=C(\C)C(=O)O)=C\C=C\C=C(C)\C=C\C=C(/C)C(=O)O ?
≤ 16.7 mL/min/kg

---

Assay: Equilibrium solubility in biorelevant media, shake-flask method
Type: physicochemical
Settings: water, 37 °C, thermodynamic from solid
MEASURE: solubility at 1 h (µg/mL)
Field format: number, assumed µg/mL, no unit text.

Data request, read-out solubility at 1 h, for CC(/C=C/C=C(\C)C(=O)O)=C\C=C\C=C(C)\C=C\C=C(/C)C(=O)O
0.6
